biological target: T1, soluble CGRP receptor (extracellular domains of human CRLR and human RAMP1) (human, UniProt Q16602 23-133; O60894 26-117); assay: SPR (Biacore T200), antibody captured by goat anti-human Fc, soluble CGRP receptor as analyte, 1:1 model
T1 construct: the tag and the thrombin site are not described; also called soluble human CGRP receptor; CGRP receptor ECD
T1 sequence (Q16602 23-133, chain 1 of 2): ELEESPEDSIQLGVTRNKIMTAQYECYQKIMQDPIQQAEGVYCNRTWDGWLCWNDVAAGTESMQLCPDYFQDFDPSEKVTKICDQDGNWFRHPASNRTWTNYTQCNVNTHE
T1 sequence (O60894 26-117, chain 2 of 2): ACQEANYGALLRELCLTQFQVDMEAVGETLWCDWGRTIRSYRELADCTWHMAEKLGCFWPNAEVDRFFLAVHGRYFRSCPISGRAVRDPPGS
Would you mind telling me the reported kon of each entry?
Write it as a number; the unit M⁻¹ s⁻¹ goes unstated.

Which kon reading was recorded for the binder 4E4 light chain K67A single-point alanine variant antibody (antibody, V domains shown, Recombinantly expressed as a monoclonal antibody) VH: QVQLVESGGGVVQPGRSLRLSCAASGFTFSSFGMHWVRQAPGKGLEWVAVISFDGSIKYSVDSVKGRFTISRDNSKNTLFLQMNSLRAEDTAVYYCARDRLNYYDSSGYYHYKYYGMAVWGQGTTVTVSS VL: QSVLTQPPSVSAAPGQKVTISCSGSSSNIGNNYVSWYQQLPGTAPKLLIYDNNKRPSGIPDRFSGSASGTSTTLGITGLQTGDEADYYCGTWDSRLSAVVFGGGTKLTVLG ?
16000

Now give it for 4E4 heavy chain D54A single-point alanine variant antibody (antibody, V domains shown, Recombinantly expressed as a monoclonal antibody) VH: QVQLVESGGGVVQPGRSLRLSCAASGFTFSSFGMHWVRQAPGKGLEWVAVISFAGSIKYSVDSVKGRFTISRDNSKNTLFLQMNSLRAEDTAVYYCARDRLNYYDSSGYYHYKYYGMAVWGQGTTVTVSS VL: QSVLTQPPSVSAAPGQKVTISCSGSSSNIGNNYVSWYQQLPGTAPKLLIYDNNKRPSGIPDRFSGSKSGTSTTLGITGLQTGDEADYYCGTWDSRLSAVVFGGGTKLTVLG too.
15000

Now give it for 4E4 light chain R95A single-point alanine variant antibody (antibody, V domains shown, Recombinantly expressed as a monoclonal antibody) VH: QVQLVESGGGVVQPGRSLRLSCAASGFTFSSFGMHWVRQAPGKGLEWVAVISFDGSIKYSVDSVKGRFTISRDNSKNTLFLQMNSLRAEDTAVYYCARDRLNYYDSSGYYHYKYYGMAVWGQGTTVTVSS VL: QSVLTQPPSVSAAPGQKVTISCSGSSSNIGNNYVSWYQQLPGTAPKLLIYDNNKRPSGIPDRFSGSKSGTSTTLGITGLQTGDEADYYCGTWDSALSAVVFGGGTKLTVLG too.
18000
